assay: S9 metabolism; format: in vitro ADME; conditions: male, Sprague Dawley, rat, hepatic S9 fraction; 500 ng/ml, 37° C., pH 7.4
assay-metric: half-life at 500 ng/ml

The compound identified as CCCC[C@H]1C(=O)OC(C)[C@H](NC(=O)c2cccc(NC=O)c2OC)C(=O)O[C@@H](C)C1OC(=O)CC(C)C (stereo partly shown) [2-OMeA3, Antimycin A3 methyl ether] registered its half-life at 500 ng/ml at > 5 min

###

test system: plasma proteins; experiment: Binding to plasma proteins (ultrafiltration); format: in vitro ADME, human; conditions: presence of NaF+EDTA, 1000 ng/ml
I'd appreciate it if you could supply Protein binding, Human values for the items below.

>>> recorded_value("CCCCCC[C@H]1C(=O)O[C@H](C)[C@H](NC(=O)c2cccc(NC=O)c2OC)C(=O)O[C@@H](C)[C@@H]1OC(=O)CC(C)C [2-OMeA1, 2-methoxy antimycin A1]")
"99.5%"

Go through the items and report each one's Protein binding, Human.
1. CC[C@H]1C(=O)O[C@H](C)[C@H](NC(=O)c2cccc(NC=O)c2OC)C(=O)O[C@@H](C)[C@@H]1OC(=O)CC(C)C [2-OMeA5, 2-OMe antimycin A5]
2. CCCC[C@H]1C(=O)OC(C)[C@H](NC(=O)c2cccc(NC=O)c2OC)C(=O)O[C@@H](C)C1OC(=O)CC(C)C (stereo partly shown) [2-OMeA3, Antimycin A3 methyl ether]
3. CCCCCC[C@H]1C(=O)O[C@H](C)[C@H](NC(=O)c2cccc(NC=O)c2OC)C(=O)O[C@@H](C)[C@@H]1OC(=O)CCC [2-OMeA2, 2-methoxy antimycin A2]

1. 99.6%
2. 99.9%
3. >99.9%
